assay: NCI Yeast Anticancer Drug Screen. Data for the cln2 rad14 strain (AID 165);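 note: 0% = growth equal to vehicle treated cultures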; conditions: S. cerevisiae cln2 rad14 strain, at 5.0 µM (retest, dose inferred, filed as 0.5)
The panel holds about 79,000 compounds, 15% with a hit somewhere; the sample as a whole holds those more often. The source made the active and inactive calls. Cut-off read from the data, not from the text of the source: active = growth inhibition above about 70%; inactive = the rest.
Give one outcome, nothing more. List: t = active, f = inactive

Prompt: Which outcome did this test record for the compound COc1ccc(/C(=C/CN2CCC3CCC(C3)C2)c2ccccc2)cc1 (configuration not stated) ?
Response: f

Prompt: Given CCCCCCCC/C=C\CCCCCCCC(=O)OCCCCC , state the outcome it received in this test.
Response: f

Prompt: Which outcome did this test record for the compound CC1=CC(=N/O)/C=CC/1=C(\C#N)c1ccccc1 ?
Response: f

Prompt: I would be grateful if you could indicate the recorded call for CCCCCCCCCCC(C(=O)OCCCC)P(=O)(OCCCC)OCCCC (configuration not stated) .
Response: f

Prompt: Just curious, what result did COc1ccc(CSC(=S)Nc2ccc(Cl)c([N+](=O)[O-])c2)cc1 get here?
Response: f

Prompt: Give the logged outcome of this assay for the following compound: CCCCCCN(CCCCCC)CCCC(O)c1cccc2ccccc12 (configuration not stated)
Response: f

Prompt: Call for entry CN(C)CCCNc1cc(O)c2c(c1O)C(=O)c1ccccc1C2=O :
Response: f

Prompt: Outcome? C=C1CC2(C[C@@H](c3ccccc3)O[C@@H](c3ccccc3)C2)OC1=O (some centres not stated)
Response: f

Prompt: Write down the call the test reported for this compound. Item: O=C(NC1CCN(Cc2ccccc2)CC1)c1cccc(I)c1
Response: t

Prompt: For Cc1ccc(Nc2nc3c(s2)C(=O)c2ccccc2C3=O)c(C)c1 , which call appears in the assay record?
Response: f

Prompt: Recorded test outcome, item CCOSc1ccccc1
Response: f

Prompt: Kindly provide the recorded test outcome for the following compound: COc1ccc2c(C)cc(N/N=C(\C)c3ccccn3)nc2c1
Response: f

Prompt: How did this test come out for CCCNC(=O)c1cc2ccccc2cc1C(=O)OC ?
Response: f

Prompt: Short answer needed: outcome of this test for O=S(=O)(CCCl)Cc1ccccc1 ?
Response: f

Prompt: Hi, sorry to bother you, what did the test record for Cc1ccccc1NC(=S)Nc1ccccc1O ?
Response: f

Prompt: How did this test come out for CN(C)C(=O)N(C)/N=C/c1ccc([N+](=O)[O-])o1 ?
Response: f

Prompt: Which outcome was entered for the compound Oc1ccc(C2(c3ccc(O)c(Cl)c3)CC3CCC2C3)cc1Cl (configuration not stated) in this test?
Response: t

Prompt: I would be grateful if you could indicate the recorded call for Cc1ccnc(NS(=O)(=O)c2ccc(N=Cc3c4ccccc4nc4cc(Cl)ccc34)cc2)n1 .
Response: f

Prompt: For CC(C)CC(NC(=O)SCc1ccccc1)C(=O)O (configuration not stated) , which call appears in the assay record?
Response: f

Prompt: # lookup: test call for CC1C/C(=N\N(C)C)C(C#N)(C#N)C1(C#N)C#N (configuration not stated)
Response: f

Prompt: Given Cc1ccc(C2COc3cc(O)c(O)cc3C2)cc1 (configuration not stated) , state the outcome it received in this test.
Response: f

Prompt: Returns: the outcome recorded for CCC[CH2][Sn]([CH2]CCC)([O]C(=O)C1CCC(=O)N1)[O]C(=O)C1CCC(=O)N1 (configuration not stated) in this assay.
Response: t

Prompt: So what was the verdict on N=C(N)c1cccc(-c2ccc(-c3ccccc3)o2)c1 in this test?
Response: f

Prompt: Write down the call the test reported for this compound. Item: CCCCCCCC(=O)N1CCCCC1CC (configuration not stated)
Response: f

Prompt: Check the results log: what was the call for [N-]=[N+]=NC1=C(C(=O)c2ccccc2)C(=O)c2cccc3cccc1c23 ?
Response: f

Prompt: How did this test come out for Fc1cccc2c1cc1ccc3cccc4ccc2c1c34 ?
Response: f

Prompt: // outcome(item) with item = NC(CSSCC(N)=NCCCCCSC12CC3CC(CC(C3)C1)C2)=NCCCCCSC12CC3CC(CC(C3)C1)C2
Response: f

Prompt: How was CCN(CC)CCCC(C)Nc1cc(O)c2c(c1O)C(=O)c1ccccc1C2=O (configuration not stated) classified in this test?
Response: f

Prompt: Entry CN(C(=O)c1ccccc1)C1(COC(=O)c2ccccc2)CCCCC1 : call = ?
Response: f

Prompt: Entry O=C1c2ccccc2C(=O)c2cc(N3C(=O)C=CC3=O)ccc21 : call = ?
Response: f

Prompt: I would be grateful if you could indicate the recorded call for Cc1cc(NCCCN(C)C)c2cc3ccc4cccc5ccc(c2n1)c3c45 .
Response: f

Prompt: Could you kindly confirm the outcome this assay logged for O/N=C1/CC2CCCc3ccc4cccc1c4c32 (configuration not stated) ?
Response: f

====

test: NCI Yeast Anticancer Drug Screen. Data for the sgs1 mgt1 strain (AID 161);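 note: 0% = growth of cultures given vehicle only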; details: S. cerevisiae sgs1 mgt1 strain, at 5.0 µM (retest, dose inferred, filed as 0.5), stronger effect = higher value
About 79,000 compounds went through this panel and 15% of them were active in at least one assay; those are over-represented in the sample as a whole.
ASSAY ENDPOINT: growth inhibition (%)
Hi! Could you send only the number? It should be in %, unit omitted.

Prompt: Reported growth inhibition, compound OCC(O)C(O)C(/C=N/Nc1ccccc1)=N/Nc1ccccc1 (stereo unspecified) : ____
Response: 10

Prompt: # query: growth inhibition of entry CN=C(N)N/N=C(\C)c1ccc2c(c1)Cc1cc(Cl)ccc1-2
Response: 13

Prompt: For N#CC(C(=O)CCc1nc2ccccc2[nH]1)c1c(Cl)cccc1Cl (stereo unspecified) , what is its reported growth inhibition?
Response: 7

Prompt: growth inhibition lookup needed for CCCCCCCCNC(=O)C(Cl)Cl , thanks.
Response: 0

Prompt: Dear colleague, I am looking for the recorded growth inhibition of the following compound: O=NNc1ncc(Sc2ccccc2)nc1Sc1ccccc1
Response: -3

Prompt: Can you share its growth inhibition? I mean this compound: S=c1sc2c(s1)SCCOCCOCCOCCS2
Response: -12

====

test: NCI Yeast Anticancer Drug Screen. Data for the mec2-1 strain (AID 157); conditions: S. cerevisiae mec2-1 strain, at 50.0 µM (retest, dose inferred, filed as 5.0)
Compounds without any hit were thinned out: in the full panel of roughly 79,000, 15% have a hit. The source made the active and inactive calls. Rule as the data show it: active = growth inhibition above about 70%; inactive = the rest.
Output constraint: value belongs to label 1 = active, label 0 = inactive

Prompt: Assay result, entry Oc1ccc(C2CCCCC2)c(O)c1 — outcome?
Response: label 0

Prompt: I'd appreciate the recorded outcome for OCC(CCc1c[nH]c2ccccc12)c1c[nH]c2ccccc12 (configuration not stated) from this test.
Response: label 1

Prompt: // outcome(item) with item = Oc1cccc2cc(Br)cnc12
Response: label 1

Prompt: Lab log entry: COC1OC2COC(c3ccccc3)OC2C(NC(=S)SCc2ccccc2)C1O (configuration not stated) — outcome as called in the assay?
Response: label 1

Prompt: Kindly provide the recorded test outcome for the following compound: COC(=O)/C=C1/OC(c2ccccc2)=C(Br)C1=O
Response: label 0

Prompt: Identify the outcome logged in this assay for the compound shown: CC1(C)CC(N(C(=O)/C=C/c2ccc([N+](=O)[O-])o2)C2CCCCC2)CC(C)(C)N1
Response: label 1

Prompt: Per the records of this test, what outcome belongs to N#CC(Cl)CS(=O)(=O)c1ccccc1 (configuration not stated) ?
Response: label 1

Prompt: # outcome recorded in this test, key = CC1=CC(O)(c2ccc(-c3ccccc3Cl)cc2)OC1=O (configuration not stated)
Response: label 1

Prompt: So what was the verdict on COc1cc(C2c3cc4c(cc3OC3(O)C=C(C)OC(=O)C23)OCO4)cc(OC)c1OC (configuration not stated) in this test?
Response: label 0

Prompt: Which outcome was assigned to CC12CCC(=O)C=C1CCC1C2CCC2(C)C(c3cnc[nH]3)CCC12 (configuration not stated) in this test?
Response: label 0

Prompt: In this assay, the call recorded for CCCCOc1ccc(CN2CCOC2=O)cc1 was what?
Response: label 0

Prompt: Dear colleague, could you share the recorded outcome for CCCCCCCCCCCCNCc1ccc(Cl)c(Cl)c1 when you have a moment?
Response: label 1

Prompt: Answer briefly: the call reported for Clc1ccccc1CCc1cc(-c2ccccc2)n[nH]1 in this assay.
Response: label 1

Prompt: # outcome recorded in this test, key = O=C1C(=O)C2CC3(CC1N2Cc1ccccc1)OCCO3
Response: label 1

Prompt: Please state the recorded outcome for this compound: O=C(Nc1ccccc1)OCCCCl
Response: label 0

Prompt: Which outcome did this test record for the compound N=Cc1cc([N+](=O)[O-])ccc1O ?
Response: label 1

Prompt: What is the recorded call for this compound in the test? O=C(Nc1ccccc1)OC1CCCC1
Response: label 1

Prompt: Give the logged outcome of this assay for the following compound: CCCCCCN(CCCCCC)CCCC(O)c1cccc2ccccc12 (configuration not stated)
Response: label 0

Prompt: Dear colleague, could you share the recorded outcome for CCCCN=C(c1ccc(O)cc1)c1ccc(OC)cc1O when you have a moment?
Response: label 0

Prompt: For CCOc1c(N=Nc2ccccc2Cl)c(C)nn1C(=S)S , which call appears in the assay record?
Response: label 0

Prompt: Which outcome did this test record for the compound COC(=O)/C(Br)=C(\Br)c1ccccc1 ?
Response: label 0

Prompt: Assay outcome for CN1C(=O)c2ccccc2C1(c1ccccc1)c1ccccc1 : what was it?
Response: label 1

Prompt: Would you mind telling me which call this test gave O=C1C(c2ccccc2)CS(=O)(=O)CC1c1ccccc1 (configuration not stated) ?
Response: label 0

Prompt: Lab log entry: CC(=O)N(C)c1cc(NCc2ccccc2)ccc1OCc1ccccc1 — outcome as called in the assay?
Response: label 1

Prompt: Record request — test call for CCCC(=O)Oc1ccc([N+](=O)[O-])cc1
Response: label 0

Prompt: Called result for O=C1CCCC/C1=C\c1ccc(Br)cc1
Response: label 1

Prompt: What is the recorded call for this compound in the test? CC(C)OC(=O)c1ccccc1C(=C1C=C(Br)C(=O)C(Br)=C1)c1cc(Br)c(O)c(Br)c1
Response: label 1

Prompt: Field: outcome | Entry: CCC(C)n1c(C)nc2c(N)cc(C(F)(F)F)cc21 (configuration not stated)
Response: label 0

Prompt: Test call for this compound, please: COc1cc(C2OC(=O)c3ccccc3S2)ccc1O (configuration not stated)
Response: label 1

Prompt: Called result for COC(=O)C1C(C(=O)OC)C2(OC(c3ccc(Cl)cc3)=CC2=O)C12OC(c1ccc(Cl)cc1)=CC2=O (configuration not stated)
Response: label 1

Prompt: Recorded test outcome, item Cn1c(=O)c2c3oc(=O)cc(O)c3c(=O)n3c4ccccc4n(c1=O)c23
Response: label 0

Prompt: Recorded call for C/C=C(\C)[C@H](O)C(COCc1ccccc1)NS(=O)(=O)c1ccc(C)cc1 (some centres not stated) ?
Response: label 0

Prompt: Per the assay record, what outcome was assigned to CCCCCCCCCCCCCCCc1nc(SCC(=O)O)n[nH]1 ?
Response: label 0

Prompt: I would be grateful if you could indicate the recorded call for C/C(=N\NC(=O)N/N=C(\C)c1ccccn1)c1ccccn1 .
Response: label 0

Prompt: Short answer needed: outcome of this test for CC(C)OCc1cccc2ccnc(COC(C)C)c12 ?
Response: label 0

Prompt: Record request — test call for Cc1ccc(O)c(-c2cscn2)c1
Response: label 0

Prompt: For this compound, state the assay outcome: C=C(C#N)C(=O)OCC(CC)CC.C=C(C#N)C(=O)OCC(CC)CC.CS(C)=O.CS(C)=O.Nc1c(N=Nc2ccc(-c3ccc(N=Nc4cc(S(=O)(=O)[O-])c5ccccc5c4N)cc3)cc2)cc(S(=O)(=O)[O-])c2ccccc12.[Pt+2]
Response: label 1

The reported measurements were obtained from PubChem BioAssay (NCI).
